B1: C8orf76 (parent)
chain: LYLQLAICSSLQNLEKTIFCLQKL

variants of: B1; test: protein stability index of a GFP-peptide fusion (GPS, HEK-293T) (PSI 1-6); higher = more stable; conditions: c terminus: a fixed tail appended;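 note: lentivirally expressed fusions sorted by FACS into six bins by GFP to DsRed ratio, PSI derived from sequencing read proportions per bin multiplied by bin number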
Parameter: protein stability index. Scope: all listed entries.

variant: T17Q
protein stability index: 3.45
--
variant: C8W
protein stability index: 2.12
--
variant: L3A
protein stability index: 3.31

## Task Can you look up the measured protein stability index of L5A for me?
## Result 1.65

## Task Follow-up item: L1V
## Result 2.57
